B1: Ankyrin repeat and SOCS box protein 14, residues 532 to 572; numbered along this chain, A6NK59 (parent)
chain: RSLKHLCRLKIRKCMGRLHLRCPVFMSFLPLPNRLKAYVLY

variants of: B1; experiment: abundance fitness (aPCA) (normalised: wild type 0, dead -1); higher = more abundant; growth selection in yeast, the domain comes from the species named; details: Homo sapiens
Returns Condition met if the recorded abundance fitness is greater than or equal to -0.2, and Condition not met otherwise.

* A37H | Condition met
* V24N | Condition met
* L35R | Condition not met
* K4R | Condition met
* R8P | Condition met
* L35P | Condition not met
* H19A | Condition met
* R17G | Condition met
* L3E | Condition met
* R34L | Condition not met
* K10V | Condition met
* P30V | Condition met
* H5Q | Condition not met
* I11G | Condition not met
* R12L | Condition met
* V24W | Condition met
* S27W | Condition met
* I11Q | Condition not met
* L20V | Condition not met
* I11L | Condition met
* Y38W | Condition met
* V24Y | Condition met
* F28I | Condition met
* L31S | Condition met
* R1V | Condition met
* L35N | Condition not met
* V24R | Condition met
* M15Y | Condition not met
* Y41W | Condition met
* C7P | Condition not met
